Target: rTRPV1 (Rattus norvegicus, UniProt O35433)
Sequence (O35433 whole entry): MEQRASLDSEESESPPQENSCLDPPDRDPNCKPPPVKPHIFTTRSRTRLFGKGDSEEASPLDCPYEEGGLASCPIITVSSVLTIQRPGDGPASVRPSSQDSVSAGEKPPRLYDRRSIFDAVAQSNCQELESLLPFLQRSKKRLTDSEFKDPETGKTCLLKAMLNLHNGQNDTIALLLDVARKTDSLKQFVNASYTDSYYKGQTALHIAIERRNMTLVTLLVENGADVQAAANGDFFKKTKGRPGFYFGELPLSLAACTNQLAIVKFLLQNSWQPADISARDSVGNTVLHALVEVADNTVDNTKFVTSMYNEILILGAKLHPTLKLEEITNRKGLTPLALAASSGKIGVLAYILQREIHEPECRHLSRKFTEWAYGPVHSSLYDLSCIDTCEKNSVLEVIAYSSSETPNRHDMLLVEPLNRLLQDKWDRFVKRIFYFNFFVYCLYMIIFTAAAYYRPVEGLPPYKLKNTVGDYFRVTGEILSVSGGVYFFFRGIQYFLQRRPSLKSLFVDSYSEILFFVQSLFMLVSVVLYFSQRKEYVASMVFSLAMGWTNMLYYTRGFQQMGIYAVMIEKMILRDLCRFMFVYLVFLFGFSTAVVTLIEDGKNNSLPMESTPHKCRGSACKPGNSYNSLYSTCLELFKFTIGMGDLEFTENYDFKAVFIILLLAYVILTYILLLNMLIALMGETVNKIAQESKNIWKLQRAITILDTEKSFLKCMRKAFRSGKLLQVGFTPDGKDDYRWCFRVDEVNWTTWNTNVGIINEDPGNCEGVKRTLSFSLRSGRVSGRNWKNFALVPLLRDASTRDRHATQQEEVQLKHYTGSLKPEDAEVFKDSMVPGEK
Assay: Fluo-4 calcium plate-reader assay, HEK293 cells transfected with rTRPV1, capsaicin activation
REPORTED METRIC: pIC50
// pIC50: -log10(molar conc.)

// map CC1CCN(c2nc(C(F)(F)F)ccc2Cc2noc(-c3cccc4[nH]c(=O)[nH]c34)n2)CC1 to recorded pIC50 (system: rTRPV1 (Rattus norvegicus, UniProt O35433))
5.30

----------
Target: UniProt Q8NER1
Sequence (Q8NER1 whole entry): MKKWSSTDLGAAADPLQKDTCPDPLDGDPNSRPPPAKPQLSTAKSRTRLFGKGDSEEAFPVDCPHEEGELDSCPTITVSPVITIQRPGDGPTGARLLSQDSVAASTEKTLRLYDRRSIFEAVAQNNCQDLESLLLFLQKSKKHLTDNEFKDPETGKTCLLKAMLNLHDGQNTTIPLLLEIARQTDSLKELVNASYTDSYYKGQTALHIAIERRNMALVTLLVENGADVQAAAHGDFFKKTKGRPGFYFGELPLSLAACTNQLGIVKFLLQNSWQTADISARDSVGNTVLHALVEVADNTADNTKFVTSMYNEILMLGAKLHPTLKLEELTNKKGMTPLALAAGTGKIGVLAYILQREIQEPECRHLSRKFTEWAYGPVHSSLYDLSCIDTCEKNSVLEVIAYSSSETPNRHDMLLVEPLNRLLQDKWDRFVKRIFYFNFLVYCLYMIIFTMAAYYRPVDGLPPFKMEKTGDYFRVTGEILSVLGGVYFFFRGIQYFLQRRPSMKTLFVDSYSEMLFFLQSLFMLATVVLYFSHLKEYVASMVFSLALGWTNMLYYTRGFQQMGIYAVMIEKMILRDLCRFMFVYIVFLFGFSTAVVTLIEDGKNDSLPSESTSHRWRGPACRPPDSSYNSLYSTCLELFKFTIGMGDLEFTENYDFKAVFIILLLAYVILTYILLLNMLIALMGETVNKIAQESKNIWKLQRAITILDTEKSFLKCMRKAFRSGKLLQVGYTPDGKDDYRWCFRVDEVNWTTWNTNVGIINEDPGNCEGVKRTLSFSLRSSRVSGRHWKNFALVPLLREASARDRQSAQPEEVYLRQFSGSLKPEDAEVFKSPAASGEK
Test: Fluo-4 calcium plate-reader assay, CHO cells stably expressing hTRPV1, capsaicin activation
REPORTED METRIC: pIC50
// pIC50: -log10(molar conc.)

// map CC1CCN(c2nc(C(F)(F)F)ccc2Cc2noc(-c3cccc4[nH]c(=O)[nH]c34)n2)CC1 [compound 50] to recorded pIC50 (system: UniProt Q8NER1)
5.67
